change in vivo at 6 mg/kg by entry:
Test system: skeletal muscle of the rat (chronic ischemic)
Test: Effect on the contractility of the skeletal muscle after chronic ischemia (tiring index)
Assay type: in vivo, rat (male Wistar)
Settings: Rattus norvegicus, po, 168 h; 6 mg/kg p.o. over 7 days, n = 4-6; smaller value = more effective; read-out: Percentage change (TI of ischemic treated muscle vs TI of normal non-treated muscle)
Number plus unit, in that order.

Look over these answered cases.
molecule	change in vivo at 6 mg/kg
Cn1cnc(S(=O)(=O)N2CCN(c3ccc(O)cc3)CC2)c1Cl	34.7%
Cn1cnc(S(=O)(=O)NCCN2CCOCC2)c1	10.3%
CN1CCCC1CCNS(=O)(=O)c1cn(C)cn1.Cl (stereo not drawn) [Example 21, hydrochloride]	19.4%
Cn1cnc(S(=O)(=O)O)c1Cl	1.3%
Cn1cnc(S(=O)(=O)NCCCCCCNS(=O)(=O)c2ncn(C)c2Cl)c1Cl	6%
Cl.Cn1cnc(S(=O)(=O)NCc2ccc(CN3CCOCC3)cc2)c1 [Example 14, hydrochloride]	13.4%

Value lookup for change in vivo at 6 mg/kg; key = `Cn1cnc(S(=O)(=O)NCCc2ccc(O)cc2)c1` 16.3%

Which change in vivo at 6 mg/kg reading was recorded for the molecule `CCn1cnc(S(=O)(=O)NCCCN2CCOCC2)c1` ? -7.9%

Recorded change in vivo at 6 mg/kg of Cl.Cn1cnc(S(=O)(=O)NCCCN2CCN(Cc3ccccc3)CC2)c1 [Example 26, hydrochloride] , please. 25.7%
